readoutKind: melting point (°C)
Kindly answer with a numeric value in °C, unit omitted.

compound	readoutKind	measurement
CC(C)OCC(=O)N[C@H]1CC[C@H](CCN2CCN(c3cccc(C(F)(F)F)c3C#N)CC2)CC1	melting point	144

### Prompt Provide melting point value for the following compound: O=C(COc1ccc(F)cc1)N[C@H]1CC[C@H](CCN2CCN(c3ccc(F)cc3F)CC2)CC1
### Response 162

### Prompt Provide melting point value for the following compound: N#CCCCC(=O)N[C@H]1CC[C@H](CCN2CCN(c3cccc(Cl)c3Cl)CC2)CC1
### Response 192

### Prompt Provide melting point value for the following compound: Cc1ccc(C(F)(F)F)cc1N1CCN(CC[C@H]2CC[C@H](NC(=O)CC#N)CC2)CC1
### Response 192

---

As shown below, each of these molecules has a reported melting point value.

### Prompt Provide melting point value for the following molecule: CC(=O)CN1CCC(CCN2CCN(c3ccc(C)cc3F)CC2)CC1 [Example 482]
### Response 65 °C

### Prompt Provide melting point value for the following molecule: CCC(=O)c1cccc(N2CCN(CCC3CCN(CC(C)=O)CC3)CC2)c1 [Example 604]
### Response 68 °C

### Prompt Provide melting point value for the following molecule: CC(=O)CN1CCC(CCN2CCc3cc(C#N)ccc3C2)CC1.Cl.Cl
### Response 249 °C

### Prompt Provide melting point value for the following molecule: CCc1cccc(N2CCN(CC[C@H]3CC[C@H](NC(=O)C4CC=CC4)CC3)CC2)c1 [Example 378]
### Response 185 °C

### Prompt Provide melting point value for the following molecule: CC(=O)CN1CCC(CCN2CCN(c3cc(Cl)ccc3F)CC2)CC1.Cl.Cl
### Response 270 °C

---

readoutKind: melting point (°C)
Kindly answer with a numeric value in °C, unit omitted.

As a guide, the following entries are already answered.
chemicalSmiles	melting point / °C
N#CCCCC(=O)N[C@H]1CC[C@H](CCN2CC=C(c3cccc(C(F)(F)F)c3F)CC2)CC1	130
N#CCC(=O)N[C@H]1CC[C@H](CCN2CCN(c3cccc(-c4ccccc4)c3)CC2)CC1	157
CC(=O)CN1CCC(CCN2CCN(c3cc(C)ccc3C)CC2)CC1.Cl.Cl	350

### Prompt Provide melting point value for the following molecule: N#CCC(=O)N[C@H]1CC[C@H](CCN2CCN(c3ccccc3Oc3ccccc3)CC2)CC1
### Response 169

---

Outcome label depends on melting point relative to 200 °C: at/above gives MET, below gives NOT MET.

chemicalSmiles	category
CCc1ccccc1C1=CCN(CCC2CCN(CC(C)=O)CC2)CC1.Cl.Cl	MET
CC(C)OCC(=O)N[C@H]1CC[C@H](CCN2CCN(c3cccc(F)c3F)CC2)CC1.Cl	MET
COc1c(Cl)cccc1N1CCN(CCC2CCN(CC(C)=O)CC2)CC1.Cl.Cl	MET
CC(C)(C)c1cc(N2CCN(CC[C@H]3CC[C@H](NC(=O)CC#N)CC3)CC2)cc(C(C)(C)C)c1	NOT MET
CCOCC(=O)N[C@H]1CC[C@H](CCN2CCN(c3cc(Cl)ccc3Cl)CC2)CC1	NOT MET

### Prompt Hi, just wondering whether Cc1cc(C)cc(C2=CCN(CC[C@H]3CC[C@@H](NC(=O)CC#N)CC3)CC2)c1.Cl shows melting point of 200 °C or higher.
### Response MET

### Prompt Hi, just wondering whether COc1cc(OC)cc(N2CCN(CC[C@H]3CC[C@H](NC(=O)CCCC#N)CC3)CC2)c1 shows melting point of 200 °C or higher.
### Response NOT MET

### Prompt Hi, just wondering whether NC(=O)CC(=O)N[C@H]1CC[C@H](CCN2CCN(c3cc(C(F)(F)F)ccc3F)CC2)CC1 shows melting point of 200 °C or higher.
### Response NOT MET
